# tested target: Human immunodeficiency virus type 1 reverse transcriptase (Human immunodeficiency virus 1) (UniProt Q72547)
# measurement description: Efficiency of incorporation into a DNA primer directed by a DNA template at the active site of HIV-1 reverse transcriptase
# Format: functional
metric: Efficiency (µM⁻¹ s⁻¹)
The response must be a number in µM⁻¹ s⁻¹ with no trailing unit.

// sample Nc1ccn([C@@H]2C=C[C@H](COP(=O)(O)OP(=O)(O)OP(=O)(O)O)O2)c(=O)n1 , its Efficiency was 0.0086

// sample Nc1ccn([C@@H]2CS[C@H](COP(=O)(O)OP(=O)(O)OP(=O)(O)O)O2)c(=O)n1 [LAMIVUDINE TRIPHOSPHATE] , its Efficiency was 0.0013

// sample Nc1nc(=O)n([C@@H]2C=C[C@H](COP(=O)(O)OP(=O)(O)OP(=O)(O)O)O2)cc1F , its Efficiency was 0.031

// sample Nc1nc(=O)n([C@@H]2CS[C@H](COP(=O)(O)OP(=O)(O)OP(=O)(O)O)O2)cc1F [EMTRICITABINE 5'-TRIPHOSPHATE] , its Efficiency was 0.0033

// sample Nc1nc(=O)n([C@H]2O[C@@H](COP(=O)(O)OP(=O)(O)OP(=O)(O)O)C=C2F)cc1F , its Efficiency was 0.0023
